- Target System: Nuclear receptor ROR-gamma (Homo sapiens, UniProt P51449)
- Sequence (P51449 whole entry): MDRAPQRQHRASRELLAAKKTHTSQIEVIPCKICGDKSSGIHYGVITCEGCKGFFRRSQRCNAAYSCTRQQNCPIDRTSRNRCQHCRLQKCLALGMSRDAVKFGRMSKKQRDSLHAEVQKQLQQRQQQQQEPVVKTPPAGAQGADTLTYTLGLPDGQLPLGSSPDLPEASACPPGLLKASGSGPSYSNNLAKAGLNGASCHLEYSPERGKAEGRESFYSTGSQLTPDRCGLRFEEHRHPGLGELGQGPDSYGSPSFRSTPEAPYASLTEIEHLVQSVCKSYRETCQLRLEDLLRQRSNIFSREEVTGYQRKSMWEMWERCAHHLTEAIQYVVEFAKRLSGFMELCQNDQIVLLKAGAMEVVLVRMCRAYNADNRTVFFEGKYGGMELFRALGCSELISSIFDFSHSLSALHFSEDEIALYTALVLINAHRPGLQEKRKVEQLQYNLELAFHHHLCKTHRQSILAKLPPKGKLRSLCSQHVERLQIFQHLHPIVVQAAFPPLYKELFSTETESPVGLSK
- Protocol Details: Inverse agonist activity at human recombinant GST-tagged RORgammat ligand binding domain assessed as effect on receptor-biotin tagged TRAP220 co-activator peptide interaction using 10 nM GST-RORgamma LBD by FRET-based assay
pIC50: −log10 of the molar value.
The threshold is inclusive: pIC50 of exactly 6 counts as 1.0; values below receive 0.0.

Example entries begin here.
CCOc1cc(-c2cc(C(N)=O)ccc2Cl)ccc1N(C)C(=O)c1c(F)cccc1Cl :: 1.0
NC(=O)c1cc(F)cc(-c2ccc3c(c2)CCCN3C(=O)c2c(F)cccc2Cl)c1 :: 0.0
CN(C(=O)c1c(F)cccc1Cl)c1ccc(-c2cc(C(N)=O)ccc2Cl)cc1OCC(F)(F)F :: 1.0
NC(=O)c1ccc(Cl)c(-c2ccc3c(c2)OCCN3C(=O)c2c(F)cccc2Cl)c1 :: 0.0

As a next step, examine the molecule that follows.
Query string: Answer whether pIC50 of [2H]C([2H])([2H])N(C(=O)c1c(F)cccc1Cl)c1ncc(-c2cc(C(N)=O)ccc2Cl)cc1OCC1CCC1 is greater than or equal to 6.
Result string: 1.0
